tested on: Wheat; assay: Whole plant screen for plant growth regulator activity, wheat (WW); type: in vivo, Wheat (Timmo); settings: WW, 4000 ppm (4 kg/ha), visual score after 2-6 weeks
reported-property: R = Retardation

Prompt line: Would you mind telling me what R = Retardation value was observed for CC(C)C#CC(O)(c1cncnc1)C(C)C (stereo not shown) [Compound 9] ?
Response line: 2 (31-60%)

Prompt line: Would you mind telling me what R = Retardation value was observed for CCCC#CC(O)(c1cncnc1)C(C)C (stereo not shown) [Compound 2] ?
Response line: 2 (31-60%)

Prompt line: Would you mind telling me what R = Retardation value was observed for CC(C)CC#CC(O)(c1cncnc1)C1CC1 (stereo not shown) [Compound 56] ?
Response line: 2 (31-60%)

Prompt line: Would you mind telling me what R = Retardation value was observed for CCCCCCC#CC(O)(c1cncnc1)C(C)C (stereo not shown) [Compound 24] ?
Response line: 1 (10-30%)

Prompt line: Would you mind telling me what R = Retardation value was observed for CCC(C)CCC(O)(c1cncnc1)C(C)C (stereo not shown) [Compound 6] ?
Response line: 3 (61-100%)

Prompt line: Would you mind telling me what R = Retardation value was observed for CCCCCCC(O)(c1cncnc1)C(C)(C)C (stereo not shown) [Compound 30] ?
Response line: 3 (61-100%)

Prompt line: Would you mind telling me what R = Retardation value was observed for CC(C)CC#CC(O)(c1cncnc1)C(C)(C)C (stereo not shown) [Compound 16] ?
Response line: 3 (61-100%)
